# Test system: Mycobacterium tuberculosis
# method.description: Cornell - Phenotypic assay to identify agents that inhibit growth of Mycobacterium tuberculosis
# Type: functional
# Design: scale not given: direction of the effect not stated beside the values
# experimental.context: 10 mM as filed; unlikely as a test dose
In all, about 53,000 compounds went through this assay and about 900 (1.7%) showed an effect of 50% or more. Only a selection was taken, and strong results are over-represented in it overall.

>  <compound>
CCN(C(=O)Cc1ccc(NCc2nccn2C)cc1)c1ccccc1

>  <unit.name>
%

>  <Percent Effect>
9.386

$$$$
>  <compound>
O=S(=O)(Nc1cnc(N2CCCC2)nc1)c1ccc(C(F)(F)F)cc1

>  <unit.name>
%

>  <Percent Effect>
101.9

$$$$
>  <compound>
Cc1c(OCC(=O)NCc2ccccc2)c(=O)ccn1C

>  <unit.name>
%

>  <Percent Effect>
2.776

$$$$
>  <compound>
CCN(C(=O)Cc1ccc(NC(=O)NC2CC2)cc1)c1ccccc1

>  <unit.name>
%

>  <Percent Effect>
-6.305

$$$$
>  <compound>
CCN1CCCC(O)(c2nc(C)c(CCOc3ccccc3Cl)s2)CC1 (stereo not given)

>  <unit.name>
%

>  <Percent Effect>
12.65

$$$$
>  <compound>
CN(C)c1ccc(C(=O)NCCCc2ccccn2)cn1

>  <unit.name>
%

>  <Percent Effect>
-1.76

$$$$
>  <compound>
CN1C(=O)C(C)(C)COc2ccc(NS(=O)(=O)Cc3ccccc3)cc21

>  <unit.name>
%

>  <Percent Effect>
-4.912

$$$$
>  <compound>
COC(=O)[C@H](C)NC(=O)CSCc1nc2sc(C(C)C)cc2c(=O)[nH]1

>  <unit.name>
%

>  <Percent Effect>
57.77

$$$$
>  <compound>
COCCNC(=O)CSCc1nc(O)c2cc(C(C)C)sc2n1

>  <unit.name>
%

>  <Percent Effect>
-18.87

$$$$
>  <compound>
Cc1ccc(F)cc1S(=O)(=O)Nc1cnc(N2CCCC2)nc1

>  <unit.name>
%

>  <Percent Effect>
13.98

$$$$
>  <compound>
CN(C)c1ncc(NS(=O)(=O)c2ccc(OC(F)(F)F)cc2)cn1

>  <unit.name>
%

>  <Percent Effect>
23.91

$$$$
>  <compound>
COC(=O)C(NC(=O)c1ccc(NC2CC2)nc1)c1ccccc1 (stereo not given)

>  <unit.name>
%

>  <Percent Effect>
107

$$$$
>  <compound>
O=S(=O)(Nc1cnc(N2CCOCC2)nc1)c1ccc(C(F)(F)F)cc1

>  <unit.name>
%

>  <Percent Effect>
57.68

$$$$
>  <compound>
NC(=O)CN1CC(c2nc(C3CC3)no2)C1.O=C(O)C(=O)O

>  <unit.name>
%

>  <Percent Effect>
-1.644

$$$$
>  <compound>
COCC1CCCN(C(=O)c2ccc(NC(=O)CC(C)C)c(C)c2)C1 (stereo not given)

>  <unit.name>
%

>  <Percent Effect>
-1.652

$$$$
>  <compound>
CN1CCN(c2nc(O)cc(Cc3ccccc3F)n2)CC1

>  <unit.name>
%

>  <Percent Effect>
10.81

$$$$
>  <compound>
O=C(O)C(F)(F)F.c1cnc(N2C[C@@H]3COC[C@]3(COCC3CCCC3)C2)nc1

>  <unit.name>
%

>  <Percent Effect>
53.05

$$$$
>  <compound>
O=C(O)C(F)(F)F.O=C(O)C(F)(F)F.c1ccc(OC[C@]23COC[C@H]2CN(c2ncccn2)C3)nc1

>  <unit.name>
%

>  <Percent Effect>
24.67

$$$$
>  <compound>
CC(C)CCC(=O)Nc1ccc2oc(=O)n(CCN(C)C)c2c1

>  <unit.name>
%

>  <Percent Effect>
-39.6

$$$$
>  <compound>
CCNc1ncc(C(=O)N[C@H](C(N)=O)c2ccccc2)cn1

>  <unit.name>
%

>  <Percent Effect>
-10.46

$$$$
>  <compound>
CCCC(=O)N(CCN1CCOCC1)c1nc2c(OC)ccc(C)c2s1.Cl

>  <unit.name>
%

>  <Percent Effect>
-1.479

$$$$
>  <compound>
COc1cccc(CNCC2CN(C)CCO2)c1 (stereo not given)

>  <unit.name>
%

>  <Percent Effect>
10.27

$$$$
>  <compound>
CCCC(=O)N(CCCN1CCOCC1)c1nc2c(Cl)cccc2s1.Cl

>  <unit.name>
%

>  <Percent Effect>
9.811

$$$$
>  <compound>
COc1cccc(OC2CN(C(=O)c3c(C)noc3C)C2)c1

>  <unit.name>
%

>  <Percent Effect>
10.7

$$$$
>  <compound>
CN(C)CCn1c(=O)oc2ccc(NC(=O)CC(C)(C)C)cc21

>  <unit.name>
%

>  <Percent Effect>
16.94

$$$$
>  <compound>
O=C(NCCCN1CCCC1=O)c1ccc(-n2ccc3ccccc32)s1

>  <unit.name>
%

>  <Percent Effect>
19.74

$$$$
>  <compound>
CN(C)CCn1c(=O)oc2ccc(NC(=O)CSc3ccccc3)cc21

>  <unit.name>
%

>  <Percent Effect>
68.34

$$$$
>  <compound>
Cl.O=C(NCCn1nc(C2CCNC2)c2cccnc21)c1ccccn1 (stereo not given)

>  <unit.name>
%

>  <Percent Effect>
-9.907

$$$$
>  <compound>
NC(=O)C(NC(=O)c1ccc(NC2CC2)nc1)c1ccccc1 (stereo not given)

>  <unit.name>
%

>  <Percent Effect>
-20.48

$$$$
>  <compound>
CS(=O)(=O)NCc1ncn2c1CN(C(=O)C1CCCO1)CCC2 (stereo not given)

>  <unit.name>
%

>  <Percent Effect>
5.323

$$$$

====

# Test system: Mycobacterium tuberculosis
# method.description: Cornell - Phenotypic assay to identify agents that inhibit growth of Mycobacterium tuberculosis
# Type: functional
# Set-up: scale not given: direction of the effect not stated beside the values
# experimental.context: 10 mM as filed; unlikely as a test dose
Screen size: about 53,000 compounds; about 900 (1.7%) showed an effect of 50% or more. For the sample, strong results were picked, then their nearest neighbours and some compounds at random.
Could you mark each record criterion met if its Percent Effect falls strictly under 30%, and criterion not met if it equals or exceeds it?

>  <molecule>
O=C(Cc1ccncc1)N(CCO)CCSc1ccc(Cl)cc1

>  <answer.label>
criterion met

$$$$
>  <molecule>
CCc1nc(CNC2CCN(c3ccc(OC)cc3)CC2)cs1

>  <answer.label>
criterion met

$$$$
>  <molecule>
O=C(CN1CCCC1Cn1cncn1)Nc1ccnn1C1CCCC1 (stereo not given)

>  <answer.label>
criterion not met

$$$$
>  <molecule>
Cc1csc(C(Cc2ccsc2)NC(=O)c2cc(=O)n(C)c(=O)n2C)n1 (stereo not given)

>  <answer.label>
criterion met

$$$$
>  <molecule>
Cc1nc2c(c(C)c1CC(=O)Nc1ccnn1C(C)C)c(=O)[nH]n2C

>  <answer.label>
criterion met

$$$$
>  <molecule>
N[C@H]1CC[C@@H](n2cc(C(=O)N[C@H]3CCCc4ccccc43)nn2)CC1

>  <answer.label>
criterion not met

$$$$
>  <molecule>
CC(C)c1nc(S(=O)(=O)Nc2ccnn2C2CCCC2)c[nH]1

>  <answer.label>
criterion not met

$$$$
>  <molecule>
CC(=O)N1CCC(Cc2cnc(Nc3cc(C)on3)cn2)CC1

>  <answer.label>
criterion met

$$$$
>  <molecule>
CC(C)c1nc(CNc2ccc(N3CCC(CO)CC3)cn2)cs1

>  <answer.label>
criterion met

$$$$
>  <molecule>
OCC(CO)N1CCCC(Cc2ccnc(Nc3ccccn3)c2)C1 (stereo not given)

>  <answer.label>
criterion met

$$$$

====

# Test system: Mycobacterium tuberculosis
# method.description: Cornell - Phenotypic assay to identify agents that inhibit growth of Mycobacterium tuberculosis
# Format: functional
# Set-up: scale not given: direction of the effect not stated beside the values
# experimental.context: 10 mM as filed; unlikely as a test dose
Screen size: about 53,000 compounds; about 900 (1.7%) showed an effect of 50% or more. The sample as a whole holds a higher share of strong results than the screen did.
Label t when Percent Effect is at or above 20%; otherwise label f.

>  <compound>
Cn1ccnc1CN1CCCN(C(=O)c2cccc(CC#N)c2)CC1

>  <answer.label>
f

$$$$
>  <compound>
COC(=O)C1=NN2C(=NS(=O)(=O)c3ccccc32)N1

>  <answer.label>
t

$$$$
>  <compound>
Cc1cnc(C(=O)N2CCN(c3ncc4c(n3)CCOC4)CC2)cn1

>  <answer.label>
t

$$$$
>  <compound>
NC(=O)C1=NC2=NS(=O)(=O)c3ccccc3N2N1Cc1ccccc1Cl

>  <answer.label>
t

$$$$
>  <compound>
CC1CCN(Cc2ccccc2CNC(=O)C2CNC(=O)N2)CC1 (stereo not drawn)

>  <answer.label>
f

$$$$
>  <compound>
Cc1nc(CN2CCC(N(C)Cc3nnc(C4CC4)n3C)C2)cs1 (stereo not drawn)

>  <answer.label>
t

$$$$
>  <compound>
CN(Cc1nnc(C2CC2)n1C)C1CCN(Cc2ccon2)C1 (stereo not drawn)

>  <answer.label>
f

$$$$
>  <compound>
CN1CCN(c2nsc(-c3cccnc3)c2C#N)CC1

>  <answer.label>
f

$$$$
>  <compound>
CN(Cc1nc2ccccc2n1C)C(=O)CCc1cscn1

>  <answer.label>
f

$$$$
>  <compound>
Cc1cc(C)c(C(=O)N2CCCC(C(=O)CCc3ccccc3)C2)cn1 (stereo not drawn)

>  <answer.label>
f

$$$$
>  <compound>
CN(Cc1nnc(C2CC2)n1C)C1CCN(Cc2ccncc2)C1 (stereo not drawn)

>  <answer.label>
f

$$$$
>  <compound>
O=S(=O)(c1cccnc1)N1CCN(Cc2nc(-c3ccco3)cs2)CC1

>  <answer.label>
t

$$$$
>  <compound>
COc1cc(CNC(=O)c2csc(Br)c2)ccn1

>  <answer.label>
f

$$$$
